Data credit: ChEMBL document CHEMBL1201862

system: SF-268; experiment: NCI tumour cell line growth inhibition, 48 h
The source made the active and inactive calls. Cut-off read from the data, not from the text of the source: active = GI50 up to about 1.1 µM and inactive = higher.
test-readout: GI50

Below, 3 compounds whose answers are already recorded.
1) CCC(=O)n1c(=O)n(-c2ccc([N+](=O)[O-])cc2)c(=O)n1C(=O)CC
> 100 µM (inactive)
2) O=C1c2ccccc2-c2c1c1ccccc1c(=O)n2Cc1ccco1
> 100 µM (inactive)
3) COc1cc2c(c3c1C=CCO3)C(=O)c1ccccc1C2=O
47.6 µM (inactive)

Prompt: Give its GI50 value. Item: `CSc1nc2ccccc2c(=O)n1-c1cccc(C)c1`
Completion: 99.1 µM (inactive)

Prompt: Give its GI50 value. Item: `CO/N=C(\C(=O)Nn1cn[n+](CC(=O)[O-])c1)c1csc(N)n1`
Completion: > 10 µM (inactive)

Prompt: Give its GI50 value. Item: `O=C(Nc1ccc(Br)cc1)c1c(-c2ccccc2)c2ccc(O)cc2oc1=O`
Completion: > 10 µM (inactive)

Prompt: Give its GI50 value. Item: `COC(=O)C1=C([C@H]2COC(C)(C)O2)[C@H]2C[C@@H]1[C@@H]1OC(C)(C)O[C@@H]12`
Completion: > 100 µM (inactive)

Prompt: Give its GI50 value. Item: `O=C(O)c1cccc(OCCO)c1`
Completion: > 100 µM (inactive)
